Measured wild-type normalized NLR, mean over SRC kinases, listed per entry for reference.
# assay-system: C1-fused SRC kinases
# protocol-details: split reporter (BiFC, NanoBiT); Gaussia princeps luciferase complementation assay in human HEK293T cells; Gluc2 at the N terminus of SKAP1 or SKAP2 (N2), Gluc1 at the N terminus (N1) or C terminus (C1) of the SRC kinase; 100 ng plasmid pair, PEI; luminescence read in lysate one day later; normalized luminescence ratio (NLR), given relative to wild type or to SKAP2
Note: the reply should be a number with no unit written.

SKAP1 ΔPH deletion mutant, N2-fused (natural protein) MQAAALPEEIRWLLEDAEEFLAEGLRNENLSAVARDHRDHILRGFQQIKARYYWDFQPQGGDIGQDSSDDNHSGTLGLSLTSDAPFLSDYQDEGMEDIVKGAQELDDLSSLTIPYEEDEEEEEKEETYDDIDGFDSPSCGSQCRPTILPGSVGIKEPTEEKEEEDIYEVLPDEEHDLEEDESGTRRKGVDYASYYQGLWDCHGDQPDELSFQRGDLIRILSKEYNMYGWWVGELNSLVGIVPKEYLTTAFEVEER	0.87

Could you now look at the following binder, please?
Exam item: Suppose we examine the binder SKAP1 W333K mutant, N2-fused (natural protein) MQAAALPEEIRWLLEDAEEFLAEGLRNENLSAVARDHRDHILRGFQQIKARYYWDFQPQGGDIGQDSSDDNHSGTLGLSLTSDAPFLSDYQDEGMEDIVKGAQELDNVIKQGYLEKKSKDHSFFGSEWQKRWCVVSRGLFYYYANEKSKQPKGTFLIKGYGVRMAPHLRRDSKKESCFELTSQDRRSYEFTATSPAEARDWVDQISFLLKDLSSLTIPYEEDEEEEEKEETYDDIDGFDSPSCGSQCRPTILPGSVGIKEPTEEKEEEDIYEVLPDEEHDLEEDESGTRRKGVDYASYYQGLWDCHGDQPDELSFQRGDLIRILSKEYNMYGKWVGELNSLVGIVPKEYLTTAFEVEER ; what wild-type normalized NLR, mean over SRC kinases value has been reported?
Marked response: 1.24
